Please respond with reported PRE Application SETFA, percentage damage on five-point scale for every item in the list.
- Test system: Setaria faberi (SETFA)
- PROCEDURE DETAILS: Pre-emergence herbicidal glasshouse test (Table B1)
- Format: in vivo
- EXPERIMENTAL PARAMETERS: applied at 500 g/h, evaluated after 13 days

[Q] Fill in the blank: the reported PRE Application SETFA, percentage damage on five-point scale of CN(C)c1c(OC(F)(F)F)ccc(C(=O)Nc2nnnn2C)c1Cl [Compound 1.001] is ____.
[A] 5 (5=80-100%)

[Q] Same question, CC(=O)N(C)c1c(OC(F)(F)F)ccc(C(=O)Nc2nnnn2C)c1Cl [Compound 1.003] this time
[A] 5 (5=80-100%)

[Q] Same question, CCC(CC)C(=O)Nc1c(OC(F)(F)F)ccc(C(=O)Nc2nnnn2CC)c1Cl [Compound 1.105] this time
[A] 3 (3=40-59%)

[Q] Same question, CC(=O)Nc1c(OC(F)(F)F)ccc(C(=O)Nc2nnnn2C)c1Cl [Compound 1.002] this time
[A] 2 (2=20-39%)

[Q] Same question, Cn1nnnc1NC(=O)c1ccc(OC(F)(F)F)c(NC(=O)C2CCC2)c1Cl [Compound 1.112] this time
[A] 1 (1=0-19%)

[Q] Same question, CCCn1nnnc1NC(=O)c1ccc(OC(F)(F)F)c(NC(C)=O)c1Cl [Compound 1.129] this time
[A] 1 (1=0-19%)

[Q] Same question, CCCn1nnnc1NC(=O)c1ccc(OC(F)(F)F)c(NC(=O)c2ccccn2)c1Cl [Compound 1.132] this time
[A] 1 (1=0-19%)

[Q] Same question, CCn1nnnc1NC(=O)c1ccc(OC(F)(F)F)c(NC(=O)C(C)(C)C)c1Cl [Compound 1.106] this time
[A] 5 (5=80-100%)

[Q] Same question, Cc1cc(C(=O)Nc2c(OC(F)(F)F)ccc(C(=O)Nc3nnnn3C)c2Cl)no1 [Compound 1.011] this time
[A] 1 (1=0-19%)

[Q] Same question, CC(=O)Nc1c(OC(F)(F)F)ccc(C(=O)Nc2nnc(C)o2)c1Cl [Compound 2.002] this time
[A] 1 (1=0-19%)

[Q] Same question, CCn1nnnc1NC(=O)c1ccc(OC(F)(F)C(F)F)c(NC(=O)C2CC2)c1Cl [Compound 1.102] this time
[A] 4 (4=60-79%)

[Q] Same question, CC(C)C(=O)Nc1c(OC(F)(F)F)ccc(C(=O)Nc2nnnn2C)c1Cl [Compound 1.124] this time
[A] 4 (4=60-79%)

[Q] Same question, CCCC(=O)Nc1c(OC(F)(F)F)ccc(C(=O)Nc2nnnn2CC)c1Cl [Compound 1.114] this time
[A] 2 (2=20-39%)

[Q] Same question, CCC(CC)C(=O)Nc1c(OC(F)(F)F)ccc(C(=O)Nc2nnnn2C)c1Cl [Compound 1.104] this time
[A] 3 (3=40-59%)

[Q] Same question, CCn1nnnc1NC(=O)c1ccc(OC(F)(F)F)c(NC(=O)C2CCC2)c1Cl [Compound 1.111] this time
[A] 1 (1=0-19%)

[Q] Same question, CCn1nnnc1NC(=O)c1ccc(OC(F)(F)F)c(NC(=O)c2ncccc2F)c1Cl [Compound 1.094] this time
[A] 1 (1=0-19%)

[Q] Same question, COc1ccc(C(=O)Nc2nnnn2C)c(Cl)c1NC(=O)C(C)F (centres unmarked) [Compound 1.028] this time
[A] 3 (3=40-59%)
